Source listed as patent US20130184222A1.

Documented IC50 across a set of compounds
# testTarget: IDH1 R132H (Homo sapiens, UniProt O75874, R132H)
# Sequence (O75874 whole entry R132H): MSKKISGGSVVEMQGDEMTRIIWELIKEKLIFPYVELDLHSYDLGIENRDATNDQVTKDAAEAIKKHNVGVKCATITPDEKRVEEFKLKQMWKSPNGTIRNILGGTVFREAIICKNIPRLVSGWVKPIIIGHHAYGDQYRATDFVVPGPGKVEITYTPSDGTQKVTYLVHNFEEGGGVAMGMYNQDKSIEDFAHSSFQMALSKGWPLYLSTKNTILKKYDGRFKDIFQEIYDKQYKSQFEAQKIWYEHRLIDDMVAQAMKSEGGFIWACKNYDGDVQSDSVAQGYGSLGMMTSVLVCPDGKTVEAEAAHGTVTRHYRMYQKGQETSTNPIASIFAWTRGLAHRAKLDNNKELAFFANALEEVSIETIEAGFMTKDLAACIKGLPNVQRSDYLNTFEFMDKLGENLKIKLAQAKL
# protocolDescription: In vitro assay for IDH1 R132H inhibitors (NADPH/aKG, resazurin detection)
# Assay type: biochemical
# conditionParameters: Table 4A; 0.2 μg/ml IDH1 R132H, 50 minutes at room temperature; read-out: IC50 (uM), IDH1 R132H Inhibition

compound: O=C(Cc1cccs1)N(c1cccc(F)c1)C1(C(=O)NC2CCCC2)CCCC1 [Compound 23]
testTarget: IDH1 R132H (Homo sapiens, UniProt O75874, R132H)
IC50: 10 to 100 µM

What IC50 appears in the records for this compound with IDH1 R132H (Homo sapiens, UniProt O75874, R132H)? O=C(NC1CCCCC1)C(c1cccc(O)c1)N(C(=O)Cc1cccs1)c1cccc(F)c1 (centres unmarked) [Compound 91]
0.1 to 1 µM

Note, next up: Cc1ccccc1C(C(=O)NC1CCCC1)N(C(=O)Cc1cccs1)c1ccccc1F (centres unmarked) [Compound 46]
0.1 to 1 µM

Note, next up: O=C(NC1CCCCC1)C(Cc1ccccc1)N(C(=O)Cc1cccs1)c1cccc(F)c1 (centres unmarked) [Compound 82]
1 to 10 µM

Note, next up: Cc1ccccc1C(C(=O)NC1CCCC1)N(C(=O)c1ccccn1)c1cccc(F)c1 (centres unmarked) [Compound 72]
1 to 10 µM

* * *

# testTarget: IDH1 R132H (Homo sapiens, UniProt O75874, R132H)
# protocolDescription: In vitro assay for IDH1 R132H inhibitors (NADPH/aKG, resazurin detection)
# Format: biochemical
# conditionParameters: Table 4B; 0.2 μg/ml IDH1 R132H, 50 minutes at room temperature; read-out: IC50, IDH1 R132H Inhibition
property: IC50

Example entries begin here.
compound: Cc1ccccc1C(C(=O)NC1CCCCC1)N(C(=O)Cn1ccnc1C)c1cccc(F)c1 (stereo not shown)
property: IC50
result: ≤ 100 nM

compound: O=C(NC1CCCCC1)[C@@H](c1ccccc1)N(C(=O)Cc1cccs1)c1cccc(F)c1
property: IC50
result: ≤ 100 nM

What value of IC50 has been recorded for this entry: Cc1ccccc1C(C(=O)NC1CCCCC1)N(Cc1cccs1)C(=O)CNCc1ccncc1 (stereo not shown)
100 to 1000 nM

Note, next up: Cc1ccccc1C(C(=O)NC1CCCCC1)N(C(=O)C(C)c1c[nH]c2ccccc12)c1cccc(F)c1 (stereo not shown)
100 to 1000 nM

Note, next up: Cc1ccccc1[C@@H](C(=O)NC1CCCCC1)N(C(=O)[C@@H]1CCCN1S(C)(=O)=O)c1cccc(F)c1
100 to 1000 nM

Note, next up: Cc1ccccc1C(C(=O)NC1CCCCC1)N(C(=O)CN1CCc2ccccc2C1)c1cccc(F)c1 (stereo not shown)
100 to 1000 nM

Note, next up: Cc1ccc(N(C(=O)Cc2cccs2)C(C(=O)NC2CCCCC2)c2ccccc2C)cc1Cl (stereo not shown)
100 to 1000 nM

* * *

# testTarget: IDH1 R132H (Homo sapiens, UniProt O75874, R132H)
# protocolDescription: In vitro assay for IDH1 R132H inhibitors (NADPH/aKG, resazurin detection)
# Type: biochemical
# conditionParameters: Table 4B; 0.2 μg/ml IDH1 R132H, 50 minutes at room temperature; read-out: IC50, IDH1 R132H Inhibition
property: IC50

Example entries begin here.
compound: Cc1ccccc1C(C(=O)NC1CCCCC1)N(C(=O)C(=O)NCc1ccncc1)c1cccc(F)c1 (stereo not shown) [Compound 270]
result: 100 to 1000 nM
//
compound: Cc1ccccc1[C@@H](C(=O)NC1CCCCC1)N(C(=O)[C@H]1CCCCN1)c1cccc(F)c1 [Compound 337]
result: 100 to 1000 nM
//
compound: O=C(NC1CCCCC1)C(c1ccccc1)N(C(=O)Cn1ccnc1)c1cccc(F)c1 (stereo not shown) [Compound 296]
result: 100 to 1000 nM

What value of IC50 has been recorded for this entry: Cc1ccccc1C(C(=O)NC1CCCCC1)N(Cc1cccs1)C(=O)CN1CCCc2ccccc21 (stereo not shown) [Compound 168]
1000 to 10000 nM

Note, next up: C#CC(=O)N(c1cccc(F)c1)C(C(=O)NC1CCCCC1)c1ccccc1C (stereo not shown) [Compound 142]
100 to 1000 nM

Note, next up: Cc1ccccc1C(C(=O)NC1CCCCC1)N(C(=O)Cc1cccs1)c1cccc(C(F)(F)F)c1 (stereo not shown) [Compound 122]
100 to 1000 nM

Note, next up: Cc1ccccc1C(C(=O)NC1CCCCC1)N(C(=O)COCc1ccccc1F)c1cccc(F)c1 (stereo not shown) [Compound 222]
100 to 1000 nM

Note, next up: N#Cc1ncn(CC(=O)N(c2cccc(F)c2)C(C(=O)NC2CCCCC2)c2ccccc2Cl)c1C#N (stereo not shown) [Compound 384]
100 to 1000 nM

Note, next up: CC(=O)N1CCC[C@H]1C(=O)N(c1cccc(F)c1)[C@H](C(=O)NC1CCCCC1)c1ccccc1C [Compound 370]
100 to 1000 nM

Note, next up: CCC(=O)N1CCCC[C@H]1C(=O)N(c1cccc(F)c1)[C@H](C(=O)NC1CCCCC1)c1ccccc1C [Compound 350]
100 to 1000 nM

Note, next up: COC(=O)Nc1cccc(N(C(=O)Cn2ccnc2C)C(C(=O)NC2CCCCC2)c2ccccc2C)c1 (stereo not shown) [Compound 241]
100 to 1000 nM

Note, next up: COc1ccccc1C(C(=O)NC1CCCCC1)N(C(=O)Cc1cccs1)c1cccc(F)c1 (stereo not shown) [Compound 116]
100 to 1000 nM

Note, next up: Cc1ccccc1C(C(=O)NC1CC2CC2C1)N(C(=O)CNc1ncccc1F)c1cccc(F)c1 (stereo not shown) [Compound 333]
100 to 1000 nM

Note, next up: CN(C)C(=O)Oc1ccc(CC(=O)N(c2cccc(F)c2)C(C(=O)NC2CCCCC2)c2ccccc2F)cc1 (stereo not shown) [Compound 313]
≤ 100 nM

Note, next up: Cc1ccccc1C(C(=O)NC1CCCCC1)N(C(=O)CNc1ccc(C#N)cc1)c1cccc(F)c1 (stereo not shown) [Compound 227]
≤ 100 nM

Note, next up: Cc1ccccc1C(C(=O)NC1CCCCC1)N(C(=O)CNc1ccccc1)c1cccc(F)c1 (stereo not shown) [Compound 155]
≤ 100 nM

Note, next up: Cc1ccccc1C(C(=O)NC1CCCCC1)N(C(=O)Cc1cscn1)c1cccc(F)c1 (stereo not shown) [Compound 158]
100 to 1000 nM

Note, next up: Cc1ccccc1C(C(=O)NC1CCCCC1)N(Cc1cccs1)C(=O)Cc1c[nH]c2ncccc12 (stereo not shown) [Compound 213]
≤ 100 nM

Note, next up: Cc1ccccc1C(C(=O)NC1CCCCC1)N(C(=O)CN1CCOc2ccccc21)c1cccc(F)c1 (stereo not shown) [Compound 202]
≤ 100 nM

Note, next up: Cc1ccccc1C(C(=O)NC1CCCCC1)N(C(=O)CNC1COC1)c1cccc(F)c1 (stereo not shown) [Compound 170]
100 to 1000 nM

Note, next up: Cc1ccccc1C(C(=O)NC1CCCCC1)N(C(=O)CNc1ccccn1)c1cccc(F)c1 (stereo not shown) [Compound 316]
≤ 100 nM

Note, next up: O=C(NC1CCCCC1)C(c1ccccc1F)N(C(=O)CNCc1ccncc1)c1cccc(F)c1 (stereo not shown) [Compound 323]
100 to 1000 nM

Note, next up: Cc1ccccc1C(C(=O)NC1CCCCC1)N(C(=O)Cc1ccsc1)c1cccc(F)c1 (stereo not shown) [Compound 150]
≤ 100 nM

Note, next up: Cc1ccccc1C(C(=O)NC1CCCCC1)N(C(=O)CNc1ccc(C(F)(F)F)nc1)c1cccc(F)c1 (stereo not shown) [Compound 279]
100 to 1000 nM

Note, next up: Cc1ccccc1C(C(=O)NC1CCCCC1)N(C(=O)CNc1ccccc1C#N)c1cccc(F)c1 (stereo not shown) [Compound 278]
100 to 1000 nM
